Assay System: T1, natural Fel d1 (Indoor Biotech, #NA-FD1-2) (cat, UniProt P30438 23-92; P30440 18-109)
T1 construct: Bought natural heterodimeric glycoprotein, chains linked by disulfide bonds; also called nFel d1; nFel d 1
T1 sequence (P30438 other isoform, or with tags, fused parts or gaps, chain 1 of 2): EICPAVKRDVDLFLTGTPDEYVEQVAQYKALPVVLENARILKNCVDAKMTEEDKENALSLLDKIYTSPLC
T1 sequence (P30440 18-109, chain 2 of 2): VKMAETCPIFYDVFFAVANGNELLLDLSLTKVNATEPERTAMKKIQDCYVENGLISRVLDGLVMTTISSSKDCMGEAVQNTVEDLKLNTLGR
Experiment Summary: SPR (Biacore), mAb captured, natural Fel d1 injected, 25 C;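 note: rate constants obtained by fitting association and dissociation phases to a one-to-one binding model, with Kd and half-life derived from those rate constants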
The reader will find reported t1/2 values listed item by item below.
Hi! Could you send only the number? It should be in min, unit omitted.

Some solved cases for reference:
Binder	t1/2, min
H4H2594S (antibody, human IgG4, V domains shown, human IgG4 Fc (H4H prefix)) VH: EVQLVESGGGLVKPGGSLRLSCAASGFTFSDYYMNWIRQAPGKGLEWVSYISSSGSSIYYADSVKGRFTISRDNAKNSLYLLMNSLRAEDTAVYYCARDGKYNSSPGDYWGQGTLVTVSS VL: DIQMTQSPSSLSASVGDRVTIACRASQGISNYLAWFQQKPGKAPKSLIYAASSLQSGVPSKFSGSGSGTDFTLTISSLQPEDFATYYCQQYNSYPLTFGGGTKVEIKR	12
H4H2606B (antibody, human IgG4, V domains shown, human IgG4 Fc (H4H prefix)) VH: EVQLVESGGGLVKPGGSLRLSCAASGFTFSDYYMNWIRQAPGKGLEWVSYISSSGNSIYYADSVKGRFTISRDNAKNSLFLQMSSLRAEDTAVYYCARDGRYNDRRRGYYWGQGTLVTVSS VL: EIVMTQSPDFQSVTPKEKVTITCRASQSIGSSLHWYQQKPDQSPKLLIKYASQSFSGVPSRFSGSGSGTDFTLTINSLEAEDAATYYCLQSSSLRTFGQGTKVEIKR	16
H2M1237N (antibody, mouse IgG2, V domains shown, chimeric: human variable domains, mouse IgG2 Fc (H2M prefix)) VH: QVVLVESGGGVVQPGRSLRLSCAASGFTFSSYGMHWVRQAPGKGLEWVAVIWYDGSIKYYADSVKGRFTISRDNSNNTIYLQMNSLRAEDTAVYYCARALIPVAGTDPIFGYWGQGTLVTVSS VL: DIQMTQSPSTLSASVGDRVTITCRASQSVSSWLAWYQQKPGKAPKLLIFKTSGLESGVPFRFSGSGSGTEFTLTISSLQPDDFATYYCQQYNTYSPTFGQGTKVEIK	42
H4H2645P (antibody, human IgG4, V domains shown, human IgG4 Fc (H4H prefix)) VH: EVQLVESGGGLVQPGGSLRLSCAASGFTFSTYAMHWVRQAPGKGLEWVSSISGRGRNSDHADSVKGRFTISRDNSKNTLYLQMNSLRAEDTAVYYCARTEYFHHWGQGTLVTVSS VL: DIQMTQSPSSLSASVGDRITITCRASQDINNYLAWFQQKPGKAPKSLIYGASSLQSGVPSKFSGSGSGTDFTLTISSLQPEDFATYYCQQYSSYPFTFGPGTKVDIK	44

# t1/2 (binder: H4H1616N (antibody, human IgG4, V domains shown, human IgG4 Fc (H4H prefix)) VH: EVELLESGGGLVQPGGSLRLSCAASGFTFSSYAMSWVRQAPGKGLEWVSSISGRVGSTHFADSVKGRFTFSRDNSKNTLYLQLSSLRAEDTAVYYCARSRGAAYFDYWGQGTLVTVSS VL: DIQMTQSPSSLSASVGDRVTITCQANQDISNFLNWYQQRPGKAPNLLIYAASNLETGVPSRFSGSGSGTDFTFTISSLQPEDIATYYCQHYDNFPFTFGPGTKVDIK ) is 9
